- Subject of test: Gal(b1-3)[Fuc(a1-4)]GlcNAc(b1-3)Gal(b1-4)GlcNAc
- Experiment summary: glycan array binding signal (z-score within array); higher = stronger binding
- Conditions used: glycan notation: IUPAC condensed, linker removed
Many of the other results were omitted from the sample, so the strongest signals are more common in it than they were.

Binder: SEX4 (Arabidopsis thaliana), Q944A8 (protein) TQAMGAVLTYRHELGMNYNFIRPDLIVGSCLQTPEDVDKLRKIGVKTIFCLQQDPDLEYFGVDISSIQAYAKKYSDIQHIRCEIRDFDAFDLRMRLPAVVGTLYKAVKRNGGVTYVHCTAGMGRAPAVALTYMFWVQGYKLMEAHKLLMSKRSCFPKLDAIRNATIDILTGLKRKTVTLTLKDKGFSRVEISGLDIGWGQRIPLTLGKGTGFWILKRELPEGQFEYKYIIDGEWTHNEAEPFIGPNKDGHTNNYAKVVDDPTSVDGTTRERLSSEDPELLEEERSKLIQFLETCSEAEV
glycan array binding signal (z-score): 0.013

Binder: TbCVNHOb (Tuber borchii) (protein) GSHIGPYMSFYASSEDVRTIEEGGRTWLVGRARRADGSWQDIKLDLDNIIGNRDGHLTWGEQNFTQSASDIRFNFEGGSNVPVLRAKLRNAAGGEQESDLNLGERLTNNNGDLVFN
glycan array binding signal (z-score): -0.231

Binder: Intelectin 1 (Homo sapiens), Q8WWA0 (protein) MNQLSFLLFLIATTRGWSTDEANTYFKEWTCSSSPSLPRSCKEIKDECPSAFDGLYFLRTENGVIYQTFCDMTSGGGGWTLVASVHENDMRGKCTVGDRWSSQQGSKAVYPEGDGNWANYNTFGSAEAATSDDYKNPGYYDIQAKDLGIWHVPNKSPMQHWRNSSLLRYRTDTGFLQTLGHNLFGIYQKYPVKYGEGKCWTDNGPVIPVVYDFGDAQKTASYYSPYGQREFTAGFVQFRVFNNERAANALCAGMRVTGCNTEHHCIGGGGYFPEASPQQCGDFSGFDWSGYGTHVGYSSSREITEAAVLLFYR
glycan array binding signal (z-score): 1.33
